# Tested on: Rodentolepis nana
# experiment.description: Anthelmintic activity against Hymenolepis nana infected in mouse assessed as reduction in worm burden at 100 mg/kg administered bid for 3 days relative to control
# Format: functional
# Design: scale not given: the % may be the effect or the level left
Active and inactive are the calls of the source. No cut-off for these calls is given here.
assay.metric: Activity

>>> test_result("CCOc1cc(OCC)c(OCC)cc1Nc1cc(C)nc2ccc3nc[nH]c3c12")
"89%"
>>> test_result("Cc1ccc(Cl)c(Nc2cc(C)nc3ccc4nc[nH]c4c23)c1")
"inactive"
>>> test_result("CCOc1ccc(OCC)c(Nc2cc(C)nc3ccc4nc[nH]c4c23)c1")
"100%"
>>> test_result("Cc1cc(Nc2ccc(OCc3ccccc3)cc2)c2c(ccc3nc[nH]c32)n1")
"81%"
>>> test_result("CCCCc1ccc(Nc2cc(-c3ccccc3)nc3ccc4nc[nH]c4c23)cc1")
"inactive"
>>> test_result("CCOc1ccc(OC)c(Nc2cc(C)nc3ccc4nc[nH]c4c23)c1")
"100%"
>>> test_result("Cc1cc(Nc2cccc(Nc3ccc(N4CCN(C)CC4)nc3)c2)c2c(ccc3nc[nH]c32)n1")
"inactive"
>>> test_result("CCCC(=O)c1ccc(Nc2cc(C)nc3ccc4nc[nH]c4c23)cc1")
"inactive"
>>> test_result("Cc1cc(Nc2cccc(C(F)(F)F)c2)c2c(ccc3nc[nH]c32)n1")
"inactive"
>>> test_result("CC(=O)c1cccc(Nc2cc(C)nc3ccc4nc[nH]c4c23)c1")
"96%"

* * *

# System: Rodentolepis nana
# experiment.description: Anthelmintic activity against Hymenolepis nana infected in mouse assessed as reduction in worm burden at 100 mg/kg administered bid for 3 days relative to control
# Type: functional
# Parameters: scale not given: the % may be the effect or the level left
Entries annotated with measured Activity
assay.metric: Activity

>>> test_result("Cc1cc(Nc2ccc(OC(C)C)c(OC(C)C)c2)c2c(ccc3nc[nH]c32)n1")
"100%"
>>> test_result("CCN(CC)c1ccc(Nc2cc(C)nc3ccc4nc[nH]c4c23)cc1")
"79%"
>>> test_result("CCOc1ccc(Nc2cc(C)nc3ccc4nc[nH]c4c23)cc1Cl")
"100%"
>>> test_result("CCCCOc1cc(Nc2cc(C)nc3ccc4nc[nH]c4c23)c(OCCCC)cc1Cl")
"100%"
>>> test_result("Cc1cc(Nc2ccc(I)cc2)c2c(ccc3nc[nH]c32)n1")
"84%"
>>> test_result("Cc1cc(Nc2ccc(-c3ccccc3)cc2)c2c(ccc3nc[nH]c32)n1")
"100%"
>>> test_result("CC(=O)c1ccc(Nc2cc(C)nc3ccc4nc[nH]c4c23)cc1")
"100%"
>>> test_result("Cc1cc(Nc2cccc(N(C)C)c2)c2c(ccc3nc[nH]c32)n1")
"100%"
>>> test_result("COc1ccccc1Nc1cc(C)nc2ccc3nc[nH]c3c12")
"66%"
>>> test_result("COc1cc(Nc2cc(C)nc3ccc4nc[nH]c4c23)c(OC)cc1Cl")
"100%"

* * *

# Test system: Rodentolepis nana
# experiment.description: Anthelmintic activity against Hymenolepis nana infected in mouse assessed as reduction in worm burden at 100 mg/kg administered bid for 3 days relative to control
# Format: functional
# Design: scale not given: the % may be the effect or the level left
Entries annotated with measured Activity
assay.metric: Activity

>>> test_result("Cc1cc(Nc2ccc(C(C)C)cc2)c2c(ccc3nc[nH]c32)n1")
"100%"
>>> test_result("CCC(=O)c1ccc(Nc2cc(C)nc3ccc4nc[nH]c4c23)cc1")
"75%"
>>> test_result("Cc1cc(Nc2ccc(C)c(Cl)c2)c2c(ccc3nc[nH]c32)n1")
"94%"
>>> test_result("Cc1cc(Nc2cccc3ccccc23)c2c(ccc3nc[nH]c32)n1")
"100%"
>>> test_result("Cc1cc(Nc2ccc(N3CCCC3)c(Cl)c2)c2c(ccc3nc[nH]c32)n1")
"100%"

* * *

# Tested on: Rodentolepis nana
# experiment.description: Anthelmintic activity against Hymenolepis nana infected in mouse assessed as reduction in worm burden at 100 mg/kg administered bid for 3 days relative to control
# Assay type: functional
# Set-up: scale not given: the % may be the effect or the level left
Active and inactive are the calls of the source. The calls are words filed in the database; no cut-off is given here.
assay.metric: Activity

>>> test_result("Cc1cc(Nc2ccc(N3CCCCC3)c(Cl)c2)c2c(ccc3nc[nH]c32)n1")
"100%"
>>> test_result("CCCCOc1ccc(Nc2cc(C)nc3ccc4nc[nH]c4c23)cc1OCCCC")
"100%"
>>> test_result("Cc1cc(Nc2ccc(Br)cc2)c2c(ccc3nc[nH]c32)n1")
"61%"
>>> test_result("CCN(CC)CCOc1ccc(Nc2cc(C)nc3ccc4nc[nH]c4c23)cc1")
"inactive"
>>> test_result("CCCCOc1ccc(Nc2cc(C)nc3ccc4[nH]cnc4c23)cc1")
"inactive"
